// reported growth for each item listed
test system: SNB-19 CNS; test: NCI-60 one-dose screen, 48 h (100 = growth as untreated, 0 = no growth, -100 = all killed); settings: 10 µM unless noted
Compounds without any hit were thinned out: in the full panel of roughly 83,000, 20% have a hit.
Your answer should be a plain number; it is taken to be in %.

compound=S=c1[nH]c2cc(Cl)ccc2s1 quantity_kind=growth output_unit=% data_value=94
compound=O=[N+]([O-])/C(=C/c1ccccc1)c1ccccc1 quantity_kind=growth output_unit=% data_value=110

Give growth for the following compound: CCOc1ccc(C(CN2CCOCC2)C(C)=O)cc1OC (configuration not stated)
103

====

test system: SK-MEL-28 melanoma; assay: NCI-60 one-dose screen, 48 h; settings: 10 µM unless noted
Compounds without any hit were thinned out: in the full panel of roughly 83,000, 20% have a hit. The source made the active and inactive calls. Rule for the calls: active = growth percent below 10; inactive = the rest.
Your answer must be one of the following: active, inactive

Solved cases (4 shown):
compound=CCSc1nc2ccccc2o1 assigned_label=inactive
compound=c1ccc(-c2cc3cc4ccccc4cn3c2)cc1 assigned_label=inactive
compound=CCCCN(CCCC)CCCCCCCCCCO assigned_label=inactive
compound=S=C(SSC(=S)N1CCOCC1)N1CCOCC1 assigned_label=inactive

What outcome does the record of this test show for `CN=C(N)N/N=C(\C)c1ccc2c(c1)Cc1ccccc1-2` ?
active

Hi team, can someone confirm the assay call for `CCOC(=O)NC(/C=C/c1ccccc1)NC(=O)OCC` ?
inactive

Give the logged outcome of this assay for the following compound: `COC(=O)C(=[N+]=[N-])C(=O)c1ccc([N+](=O)[O-])o1`
inactive

Any idea what this test logged for `CC(C)Nc1ccc(Nc2ccc(NC(C)C)cc2)cc1` ?
inactive

Which result was noted for this compound in the test: `Cc1cc(C)c([I+]c2c(C)cc(C)cc2C)c(C)c1`
active

Entry CC1CC(C)(C)OB(OC(C)CC(C)(C)OB2OC(C)CC(C)(C)O2)O1 (stereo not drawn) : call = ?
inactive

Could you kindly confirm the outcome this assay logged for CCCCCCCCCCCC[S+](C)CC(=O)[O-] (stereo not drawn) ?
inactive

Which outcome did this test record for the compound `CCOC(=O)c1c(C)[nH]c2ccc(O)cc12` ?
inactive

Short answer needed: outcome of this test for `O=C(Nc1cccc(C(F)(F)F)c1)Oc1ccc(Cl)c2cccnc12` ?
inactive

Identify the outcome logged in this assay for the compound shown: `CN(Cc1ccccc1)c1ccc(SC#N)cc1`
inactive

Name the outcome recorded for `O=C1C=C(Cl)C(=O)c2ccccc21` in the assay.
inactive

Which outcome did this test record for the compound `O=C(c1ccccc1)c1cc2ccccc2oc1=O` ?
inactive

Hi team, can someone confirm the assay call for CCCCCCC1N=C(N)N=C(N)N1c1cccc(Cl)c1 (stereo not drawn) ?
inactive

Field: outcome | Entry: `O=[N+]([O-])c1ccc([I+]c2ccccc2)cc1`
active

Which outcome was assigned to `O=C(c1ccccc1)N(CCCl)C(=O)N(CCCl)C(=O)c1ccccc1` in this test?
inactive

GET /call?item= CC(O)C(O)C(O)C(O)C(O)C(=O)NNc1ccccc1 (stereo not drawn) returns the recorded outcome of this test.
inactive

====

tested on: NCI-H522 lung; assay: NCI-60 one-dose screen, 48 h; details: 10 µM unless noted
This is part of a sample that, as a whole, favours compounds with a hit. Of some 83,000 tested, about 20% had one in any assay. Calls of active or inactive are those of the source. The calls were made as follows: active = growth percent below 10; inactive = the rest. Where a SMILES comes first, the peptide text is derived from it. [ ]: non-standard residue; d: D form. ξ: configuration not given here. ξD = NC(CC(=O)O)C(=O)O
Please answer using one outcome listed in active, inactive

Solved entries (count: 3):
compound=COC(=O)[C@]1(C)CCC[C@]2(C)c3ccc(C(C)C)cc3C(=O)[C@@H](Br)[C@@H]12 assigned_label=inactive
compound=N#Cc1c2ccccc2nc2ccccc12 assigned_label=inactive
compound=Cc1ccccc1NC(=O)Cc1csc2[n+]1C(=O)/C(=C/c1ccc([N+](=O)[O-])cc1)S2 assigned_label=inactive

Name the outcome recorded for NCC(=O)NC(CC(=O)O)C(=O)O (centres undefined) (H-Gly-[ξD]-OH) in the assay.
inactive

Look up the recorded call for CC(C)=CCCC(C)C1=C(O)C(=O)C(C)=CC1=O (centres undefined) in this test.
active

Assay outcome for CCN1CCCC(Nc2cc(C)nc(/N=C(/N)Nc3ccc(Cl)c(Cl)c3)n2)C1 (centres undefined) : what was it?
active

What call does the record list for `CN1CCC(c2ccccc2)(c2ccccc2)C(=O)C1` ?
inactive

Which outcome was assigned to `CC(C)(C)c1ccc(CCO)cc1` in this test?
inactive

Could you check what this test reported for `NNc1cccc([N+](=O)[O-])c1` ?
inactive

Look up the recorded call for `CC(C)N=C(N)/N=C(\N)Nc1ccc2ccc3ccccc3c2c1` in this test.
active

Short answer needed: outcome of this test for Nc1nc2ncc(CNc3ccc(C(=O)NC(CCC(=O)NC(CCC(=O)NC(CCC(=O)NC(CCC(=O)NC(CCC(=O)O)C(=O)O)C(=O)O)C(=O)O)C(=O)O)C(=O)O)cc3)nc2c(=O)[nH]1 (centres undefined) ?
inactive

For `Cc1cc(C(=O)c2ccc(Cl)cc2)ccc1O` , which call appears in the assay record?
inactive

Please indicate how the test categorized `O=C(C[P+](c1ccccc1)(c1ccccc1)c1ccccc1)c1ccccc1` .
inactive

Tell me the recorded outcome of this test for CCCCCCCCCCCC(=O)OC(C)C(=O)NCCCC (centres undefined) .
inactive

Test call for this compound, please: `CCOC(=O)c1c(C)[nH]c2ccc(O)cc12`
inactive

Outcome? `O=C1/C(=C\c2ccc([N+](=O)[O-])cc2)CS(=O)(=O)C/C1=C/c1ccc([N+](=O)[O-])cc1`
active

Kindly provide the recorded test outcome for the following compound: `N=C(N)Sc1cccc[n+]1[O-]`
inactive

Per the records of this test, what outcome belongs to CCCCCC/C=C1\CCC(CN2CCCC2)C1=O (centres undefined) ?
inactive

Hey, what did the test say about `COc1cc(OC)c(/C=C/c2c3ccccc3cc[n+]2C)c(OC)c1` ?
active

I'd appreciate the recorded outcome for `Nc1ccc(C(=O)/C=C/c2ccccc2)cc1` from this test.
inactive

Tell me the recorded outcome of this test for CCN(CC)CCNC(Cc1ccccc1)c1ccc(OCc2ccccc2)cc1 (centres undefined) .
inactive

Per the assay record, what outcome was assigned to `COc1ccc2nc3cc([N+](=O)[O-])ccc3c(NNc3ccccc3)c2c1` ?
inactive
